system: A549; experiment: Cytotoxicity against human A549 cells assessed as reduction in cell viability by MTT assay; format: functional, cell-based
endpoint.label: IC50 (mg/L)
Numbers only; they are read as mg/L.

# compound, endpoint.label, reading.unit, readout.value
measured = [
    ("COC(=O)c1nc2nc(Oc3ccccc3)c(C#N)c(-c3ccc([N+](=O)[O-])cc3)c2c(N)c1C(=O)OC", "IC50", "mg/L", 8.24),
    ("O=NN(CCCl)C(=O)NCCCl [CARMUSTINE]", "IC50", "mg/L", 6.35),
    ("COC(=O)c1nc2nc(Oc3ccccc3)c(C#N)c(-c3cccc([N+](=O)[O-])c3)c2c(N)c1C(=O)OC", "IC50", "mg/L", 6.12),
]

API: value(readout= IC50, system= A549, query= `COC(=O)c1nc2nc(Oc3ccccc3)c(C#N)c(-c3ccc(OC)cc3)c2c(N)c1C(=O)OC` )
10.1
